Quick reference: normalized growth of the listed items.
test: chemical genetic growth profiling, strain panel (AID 1159580);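 note: tested at 20 µM; growth read once vehicle control cultures reached saturation at 30 °C; 1 = growth at the plate median or of vehicle wells; lower values mean less growth of the strain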; conditions: S. cerevisiae deletion strains, growth OD, locus YLR357W, strain rsc2, hits give low values
About 2,000 (36%) of roughly 5,500 compounds were called active. Another 18% or so got no clear call; they are omitted. The list shows a part of the results.
Write the value as a bare number.

Below are worked cases with known answers.
COC1CC(OC2CCC3(C)C(CCC4C3CCC3(C)C(C5=CC(=O)OC5)C(OC(C)=O)CC43O)C2)OC(C)C1O (stereo not given) :: 1.06
CCCCCC(O)C1C(=O)OC(C)C(O)/C=C/C=C/C=C/C=C/C=C(\C)C(O)CC(O)CC(O)CC(O)CC(O)CC(O)CC1O (stereo not given) :: 0.972
CC(=O)OC1CC[C@@]2(C)C(CCC3C2CC[C@]2(C)C(C4=CC(=O)OC4)C(OC(C)=O)CC32O)C1 (stereo not given in full) :: 0.967
C[C@]12CCC3C(CC[C@]4(O)C[C@@H](O)CC[C@]34C=O)[C@@]1(O)CCC2C1=CC(=O)OC1 (stereo not given in full) :: 0.998

[ask] For COP(N)(=O)SC (stereo not given) , what is its reported normalized growth?
[reply] 1.02
